assayed system: Bromodomain-containing protein 4 (Homo sapiens)
test protocol: Inhibition of BRD4 (unknown origin) by alpha-screen assay
assay readout: pIC50
Remember the convention: pIC50 equals -log10 of concentration in molar.

Data request: Endpoint output: pIC50 of CC[C@@H]1c2nnc(C)n2-c2cnc(Nc3ccc(C(=O)NC4CCN(C(=O)CCCCNc5cccc6c5CN(C5CCC(=O)NC5=O)C6=O)CC4)cc3OC)nc2N1CC1CCCCC1 (some centres not stated) . Value?
Data returned: 6.51

Data request: Now consider CC[C@@H]1c2nnc(C)n2-c2cnc(Nc3ccc(C(=O)NC4CCN(C(=O)CCCCOc5cccc6c5C(=O)N(C5CCC(=O)NC5=O)C6=O)CC4)cc3OC)nc2N1CC1CCCCC1 (some centres not stated) .
Data returned: 6.43

Data request: Same thing, different molecule: CC[C@@H]1c2nnc(C)n2-c2cnc(Nc3ccc(C(=O)NC4CCN(CCCCCCCCCCOc5cccc6c5C(=O)N(C5CCC(=O)NC5=O)C6=O)CC4)cc3OC)nc2N1CC1CCCCC1 (some centres not stated)
Data returned: 6.55

Data request: For CC[C@@H]1c2nnc(C)n2-c2cnc(Nc3ccc(C(=O)NC4CCN(CCCCNC(=O)COc5cccc6c5C(=O)C(C5CCC(=O)NC5=O)C6=O)CC4)cc3OC)nc2N1CC1CCCCC1 (some centres not stated) then?
Data returned: 6.66

Data request: Can you handle CC[C@@H]1c2nnc(C)n2-c2cnc(Nc3ccc(C(=O)NC4CCN(CCCCCCCCCCCOc5cccc6c5C(=O)N(C5CCC(=O)NC5=O)C6=O)CC4)cc3OC)nc2N1CC1CCCCC1 (some centres not stated) next?
Data returned: 6.42

Data request: Request: CC[C@@H]1c2nnc(C)n2-c2cnc(Nc3ccc(C(=O)NC4CCN(CCCCCCCCCOc5cccc6c5C(=O)N(C5CCC(=O)NC5=O)C6=O)CC4)cc3OC)nc2N1CC1CCCCC1 (some centres not stated)
Data returned: 6.65

Data request: Then CC[C@@H]1c2nnc(C)n2-c2cnc(Nc3ccc(C(=O)NC4CCN(CCCCCCOc5cccc6c5C(=O)N(C5CCC(=O)NC5=O)C6=O)CC4)cc3OC)nc2N1CC1CCCCC1 (some centres not stated) ?
Data returned: 6.92

Data request: Try this molecule too: CC[C@@H]1c2nnc(C)n2-c2cnc(Nc3ccc(C(=O)NC4CCN(C(=O)COc5cccc6c5C(=O)N(C5CCC(=O)NC5=O)C6=O)CC4)cc3OC)nc2N1CC1CCCCC1 (some centres not stated)
Data returned: 6.60

Data request: Another molecule to check: CC[C@@H]1c2nnc(C)n2-c2cnc(Nc3ccc(C(=O)NC4CCN(C(=O)CCCCCCOc5cccc6c5C(=O)N(C5CCC(=O)NC5=O)C6=O)CC4)cc3OC)nc2N1CC1CCCCC1 (some centres not stated)
Data returned: 6.18

Data request: // same read-out, input: CC[C@@H]1c2nnc(C)n2-c2cnc(Nc3ccc(C(=O)NC4CCN(CCCCCCCOc5cccc6c5C(=O)N(C5CCC(=O)NC5=O)C6=O)CC4)cc3OC)nc2N1CC1CCCCC1 (some centres not stated)
Data returned: 6.68

Data request: Now the molecule CC[C@@H]1c2nnc(C)n2-c2cnc(Nc3ccc(C(=O)NC4CCN(C(=O)CCCCCNc5cccc6c5CN(C5CCC(=O)NC5=O)C6=O)CC4)cc3OC)nc2N1CC1CCCCC1 (some centres not stated)
Data returned: 6.54

Data request: Thanks! And CC[C@@H]1c2nnc(C)n2-c2cnc(Nc3ccc(C(=O)NC4CCN(C(=O)CCCCCOc5cccc6c5C(=O)N(C5CCC(=O)NC5=O)C6=O)CC4)cc3OC)nc2N1CC1CCCCC1 (some centres not stated) ?
Data returned: 6.36

Data request: Another molecule to check: CC[C@@H]1c2nnc(C)n2-c2cnc(Nc3ccc(C(=O)NC4CCN(C(=O)CCCCCCC(=O)Nc5cccc6c5CN(C5CCC(=O)NC5=O)C6=O)CC4)cc3OC)nc2N1CC1CCCCC1 (some centres not stated)
Data returned: 6.72

Data request: Next record, please: CC[C@@H]1c2nnc(C)n2-c2cnc(Nc3ccc(C(=O)NC4CCN(C(=O)CNc5cccc6c5CN(C5CCC(=O)NC5=O)C6=O)CC4)cc3OC)nc2N1CC1CCCCC1 (some centres not stated)
Data returned: 6.59

Data request: Same read-out for CC[C@@H]1c2nnc(C)n2-c2cnc(Nc3ccc(C(=O)NC4CCN(C(=O)CCCOc5cccc6c5C(=O)N(C5CCC(=O)NC5=O)C6=O)CC4)cc3OC)nc2N1CC1CCCCC1 (some centres not stated) ?
Data returned: 6.13

Data request: Another molecule: CC[C@@H]1c2nnc(C)n2-c2cnc(Nc3ccc(C(=O)NC4CCN(CCCCCCCCOc5cccc6c5C(=O)N(C5CCC(=O)NC5=O)C6=O)CC4)cc3OC)nc2N1CC1CCCCC1 (some centres not stated)
Data returned: 6.46

Data request: Can you handle CC[C@@H]1c2nnc(C)n2-c2cnc(Nc3ccc(C(=O)NC4CCN(CCCCCOc5cccc6c5C(=O)N(C5CCC(=O)NC5=O)C6=O)CC4)cc3OC)nc2N1CC1CCCCC1 (some centres not stated) next?
Data returned: 6.82
